- Study system: ATP-binding cassette sub-family B member 6 (Homo sapiens) (UniProt Q9NP58)
- Sequence (Q9NP58 whole entry, looked up): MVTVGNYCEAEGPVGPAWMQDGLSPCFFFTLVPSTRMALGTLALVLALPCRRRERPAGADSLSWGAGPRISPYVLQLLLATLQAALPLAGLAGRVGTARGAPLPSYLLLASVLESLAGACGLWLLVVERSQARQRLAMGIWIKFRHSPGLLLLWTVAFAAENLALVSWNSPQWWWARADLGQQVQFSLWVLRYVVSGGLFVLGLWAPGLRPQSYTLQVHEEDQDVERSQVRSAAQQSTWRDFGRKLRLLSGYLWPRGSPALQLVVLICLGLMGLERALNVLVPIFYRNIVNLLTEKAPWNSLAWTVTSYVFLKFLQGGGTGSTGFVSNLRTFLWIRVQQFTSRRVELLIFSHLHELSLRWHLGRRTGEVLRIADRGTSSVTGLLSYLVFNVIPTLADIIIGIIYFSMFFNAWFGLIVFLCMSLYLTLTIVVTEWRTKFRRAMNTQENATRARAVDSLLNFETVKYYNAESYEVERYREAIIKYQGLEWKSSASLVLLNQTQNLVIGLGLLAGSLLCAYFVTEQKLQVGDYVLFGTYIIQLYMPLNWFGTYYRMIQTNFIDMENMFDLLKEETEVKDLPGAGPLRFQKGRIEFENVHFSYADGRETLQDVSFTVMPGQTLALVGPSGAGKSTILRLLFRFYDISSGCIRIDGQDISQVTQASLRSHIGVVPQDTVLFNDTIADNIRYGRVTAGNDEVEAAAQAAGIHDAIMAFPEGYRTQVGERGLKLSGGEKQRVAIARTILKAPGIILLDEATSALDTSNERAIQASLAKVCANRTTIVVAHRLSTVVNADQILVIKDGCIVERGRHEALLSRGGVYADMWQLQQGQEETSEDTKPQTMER
- Test summary: blockers of ABCB6-driven porphyrin uptake – K562-ABCB6 cells, flow cytometry, cherry pick 1, confirmation (AID 602430);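 also: median porphyrin fluorescence at 575 nm with 488 nm excitation from mitochondria; lower ratio means less porphyrin signal so ABCB6 inhibition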
- Setup conditions: K562-ABCB6 porphyrin accumulation, 1 h, at 10 µM, hits give low values
The list shows a part of the results. The source made the active and inactive calls.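 The calls were made as follows: active = repeat-averaged ratio response below 75% of DMSO, the collection mean minus 3 SD; inactive = the rest.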
Below is a list of entries, each paired with its recorded ratio response (% of DMSO) value.

Molecule | ratio response (% of DMSO)
COc1cccc(N(CC(=O)N2CCc3ccccc3C2)S(C)(=O)=O)c1 | 100% (inactive)
O=C(NCCSc1ncc(-c2ccccc2)[nH]1)c1ccco1 | 102% (inactive)
CC(C(=O)Nc1ccc(F)c(F)c1F)N1CCCCCC1 (configuration not stated) | 101% (inactive)
O=C(COc1ccc(-n2cnnn2)cc1)Nc1ccccc1Cl | 99% (inactive)
Cc1ccccc1NC(=O)C(C)OC(=O)CCC(=O)N(CC(C)C)c1c(N)n(CC(C)C)c(=O)[nH]c1=O (configuration not stated) | 101% (inactive)
Cc1ccc(Cl)cc1N1CCN(C(=O)c2cccc3c(=O)c(C)c(-c4ccccc4)oc23)CC1 | 102% (inactive)
CCCOC(=O)C1=C(C)NC2=C(C(=O)C(C(=O)OC)C(C)C2)C1c1ccc(N(C)C)cc1 (configuration not stated) | 100% (inactive)
CCC(=O)N1CCCC1(C)C(=O)Nc1ccc2c(c1)CCN2C(C)=O (configuration not stated) | 99% (inactive)
COC(=O)CNC(=O)c1cc(-c2ccncc2)nc2ccccc12 | 101% (inactive)
O=C1CCCC2=C1C(c1cccs1)n1nc(SCc3ccccc3)nc1N2 (configuration not stated) | 102% (inactive)
CCOc1ccc(NC(=O)CC2NCCNC2=O)cc1 (configuration not stated) | 100% (inactive)
CCS(=O)(=O)N1CCC(N2CCN(c3ccccc3)CC2)CC1 | 103% (inactive)
CC1(C(=O)NS(=O)(=O)c2cccc(F)c2)CCN1C(=O)Cc1cc(F)ccc1F (configuration not stated) | 97% (inactive)
Cc1cc(C)cc(NC(=O)NCc2ccccn2)c1 | 96% (inactive)
O=C(c1ccc(Cl)cc1)c1cnc(Nc2ccccc2)s1 | 102% (inactive)
CC1(C)Cc2c(C#N)c(SCc3nc4ccccc4[nH]3)nc(N3CCOCC3)c2CO1 | 96% (inactive)
CC(C)C(=O)NCC(c1cccs1)S(=O)(=O)c1ccc(F)cc1 (configuration not stated) | 100% (inactive)
Cc1cccc(N2CCN(C(=O)CCS(=O)(=O)c3ccc4c(c3)NC(=O)C(C)S4)CC2)c1C (configuration not stated) | 96% (inactive)
O=C(Nn1cnc2ccccc2c1=O)c1ccc(F)cc1Cl | 93% (inactive)
Cc1nn(-c2ccccc2)c(C)c1C(=O)OCC(=O)NC(=O)NC1CCCCC1 | 97% (inactive)
O=C(Cc1cccs1)NCc1cccc(C(F)(F)F)c1 | 103% (inactive)
OCCC1CN(Cc2cnc(-c3ccccc3)s2)CCN1CCc1ccccc1 (configuration not stated) | 102% (inactive)
